- method description: liver-stage malaria parasite growth inhibition, primary screen, cell-based, HepG2, luciferase luminescence, HepG2 viability (AID 624349);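 also: 100% = mean of DMSO negative control wells on the same plate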
- stated conditions: P. berghei liver stage in HepG2, luciferase luminescence, concentration not given here; active compounds read low
observation type: parasite load remaining (%)

compound	numeric readout
CC(C)CCCC(C)N (centres undefined)	30.8
OCCN1CCN(CC/C=C2/c3ccccc3Sc3ccc(C(F)(F)F)cc32)CC1	69.9
CCCNC(C)(C)COC(=O)c1ccccc1	69.3
CCOc1ccccc1OCCN[C@H](C)Cc1ccc(OC)c(S(N)(=O)=O)c1	30.6

###

- system: Calcium-activated potassium channel subunit alpha-1 (Homo sapiens) + Leucine-rich repeat-containing protein 26 (Homo sapiens) (UniProt Q12791+Q2I0M4)
- Sequence (Q2I0M4 whole entry, looked up, one chain of several): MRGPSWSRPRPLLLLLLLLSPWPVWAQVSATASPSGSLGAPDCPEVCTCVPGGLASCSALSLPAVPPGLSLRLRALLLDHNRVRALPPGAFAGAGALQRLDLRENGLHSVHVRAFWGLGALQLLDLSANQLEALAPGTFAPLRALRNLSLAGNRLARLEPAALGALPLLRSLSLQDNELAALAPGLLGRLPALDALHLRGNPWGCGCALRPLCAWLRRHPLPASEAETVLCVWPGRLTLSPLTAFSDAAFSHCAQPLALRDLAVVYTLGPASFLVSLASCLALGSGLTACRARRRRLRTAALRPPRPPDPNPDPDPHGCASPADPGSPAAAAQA
- method description: modulators of BK channel variants, profiling panel, selectivity assay, cell-based, U2OS BacMam, thallium flux, beta subunits (AID 1259406);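 also: initial slope of Thallos dye fluorescence rise after thallium is added; log ratio against the mean of 0.3% DMSO vehicle wells on the same plate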
- stated conditions: F380Y/Slo1WT/gamma1, at 30 µM
observation type: log fold change Tl+ flux

smiles record	numeric readout
COc1ccc(-c2oc3c(CC=C(C)C)c(O[C@@H]4O[C@H](CO)[C@@H](O)[C@H](O)[C@H]4O)cc(O)c3c(=O)c2O[C@@H]2O[C@@H](C)[C@H](O)[C@@H](O)[C@H]2O)cc1	-0.0341
N=c1nc(N2CCCCC2)cc(N)n1O	0.00253
CN/C(=C\[N+](=O)[O-])NCCSCc1ccc(CN(C)C)o1	-0.0244

###

Each entry below lists one item and its recorded fluorescence ratio value.
- method description: fluorescence interference in NS3h assay format, artefact control for HCV NS3 helicase inhibitor project, biochemical, NIH Clinical Collection (AID 743272);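 also: HCV NS3 helicase with a Cy5 labelled single stranded DNA probe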
- stated conditions: fluorescence interference counterscreen, active compounds read low
observation type: fluorescence ratio

compound	numeric readout
C#C[C@]1(OC(C)=O)CC[C@H]2[C@@H]3CCC4=CC(=O)CC[C@@H]4[C@H]3CC[C@@]21C	0.89
CC(C)[N+]1(C)C2CCC1CC(OC(=O)C(CO)c1ccccc1)C2 (centres undefined)	1.02
CON=C(C(=O)NC1C(=O)N2C(C(=O)O)=C(COC(C)=O)CSC12)c1csc(N)n1 (centres undefined)	1.03
CN(C)C(=O)C(CCN1CCC(O)(c2ccc(Cl)cc2)CC1)(c1ccccc1)c1ccccc1	1.01

###

- method description: growth inhibition of GSK3B-pretreated HCT116 cells – cell-based, CellTiter-Glo, 0.2 to 20 µM (AID 1117336)
- stated conditions: HCT116 viability after GSK3B inhibitor, at 20 µM
The source made the active and inactive calls.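 How the source made its calls: active means compounds lowering colon cancer cell viability after pretreatment blocking the GSK3B kinase; inactive means the rest.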
Possible outcomes: active, inactive

molecule	class name
Cc1cc(-n2nc3ccc(Cl)cc3n2)c(O)c(C(C)(C)C)c1	inactive
CC(=O)O[C@@]12CO[C@@H]1C[C@H](O)[C@@]1(C)C(=O)[C@H](O)C3=C(C)[C@@H](OC(=O)[C@H](O)[C@@H](NC(=O)OC(C)(C)C)c4ccccc4)C[C@@](O)([C@@H](OC(=O)c4ccccc4)[C@H]21)C3(C)C	active
CCNC(=O)/C=C/c1cccc(Br)c1	inactive
COC(c1ccccc1)(c1ccccc1)[C@H](Oc1nc(C)cc(C)n1)C(=O)O	inactive
CN1CCCN=C1/C=C/c1cccs1	inactive
CC(=O)OCC(=O)[C@@]1(O)CC[C@H]2[C@@H]3CCC4=CC(=O)C=C[C@]4(C)[C@@]3(F)[C@@H](O)C[C@@]21C	inactive
Cc1ccc(C(=O)c2cc(O)c(O)c([N+](=O)[O-])c2)cc1	active
CN(N=O)C(=O)N[C@@H]1[C@@H](O)[C@H](O)[C@@H](CO)O[C@@H]1O	inactive
COCC(=O)Nc1c(I)c(C(=O)NCC(O)CO)c(I)c(C(=O)N(C)CC(O)CO)c1I (configuration not stated)	inactive
COc1cc(/C=C/C(N)=O)cc(OC)c1OC	inactive
CCOc1ccccc1OCC1CNCCO1 (configuration not stated)	inactive
O=[N+]([O-])c1cncn1CCN1CCOCC1	inactive
Cc1ccc(-c2ncc(Cl)cc2-c2ccc(S(C)(=O)=O)cc2)cn1	inactive
O=C(O)C1CCC1	inactive
N[C@H]1C(O)O[C@H](CO)[C@@H](O)[C@@H]1O (some centres not stated)	inactive
Cn1c(=O)c2c(ncn2CC2OCCO2)n(C)c1=O	inactive
OC(CCN1CCCCC1)(c1ccccc1)C1CC2C=CC1C2 (configuration not stated)	inactive
C[C@@H](O[C@H]1OCCN(Cc2n[nH]c(=O)[nH]2)[C@H]1c1ccc(F)cc1)c1cc(C(F)(F)F)cc(C(F)(F)F)c1	active
COC(=O)N[C@H](C(=O)N[C@@H](Cc1ccccc1)[C@@H](O)CN(Cc1ccc(-c2ccccn2)cc1)NC(=O)[C@@H](NC(=O)OC)C(C)(C)C)C(C)(C)C	inactive
CS(=O)(=O)CCNCc1ccc(-c2ccc3ncnc(Nc4ccc(OCc5cccc(F)c5)c(Cl)c4)c3c2)o1	active
CN(C)C(=O)COC(=O)Cc1ccc(OC(=O)c2ccc(N=C(N)N)cc2)cc1	inactive
Cc1nc2ccccc2n1Cc1ccc(Cl)cc1	active
CC(=O)Nc1ccc(C(=O)O)cc1	inactive
CCCCCOC(=O)Nc1nc(=O)n([C@@H]2O[C@H](C)[C@@H](O)[C@H]2O)cc1F	inactive
CC(=C(CCOC(=O)C(C)C)SSC(CCOC(=O)C(C)C)=C(C)N(C=O)Cc1cnc(C)nc1N)N(C=O)Cc1cnc(C)nc1N	inactive
CC[N+](C)(CC)CCOC(=O)C1c2ccccc2Oc2ccccc21	inactive
CN(C)[C@@H](CCOc1cccc2ccccc12)c1ccccc1	active
CN1C(CCl)Nc2cc(Cl)c(S(N)(=O)=O)cc2S1(=O)=O (configuration not stated)	inactive
CCC(C)(C)c1ccc(CC(C)CN2C[C@@H](C)O[C@@H](C)C2)cc1 (some centres not stated)	inactive
NC(N)=NC(N)=NCCc1ccccc1	inactive
O=C(Nc1ccc(C(=O)O)c(O)c1)c1ccccc1	inactive
CCCCCCCCCCCCCCCCCC[N+](C)(C)CCC[Si](OC)(OC)OC	inactive
